target: Receptor-type tyrosine-protein kinase FLT3 (Homo sapiens); conditions: at 20 µM
VALUE_TYPE: inhibition (%)
Note: unit % is implicit; provide only the numeric part.

[Q] Please tell me: inhibition of `N#CCc1ccc(-c2cnc3cc(-c4ccccc4)ccn23)cc1` , system Receptor-type tyrosine-protein kinase FLT3 (Homo sapiens)?
[A] 96.4

[Q] Form entry - test system: Receptor-type tyrosine-protein kinase FLT3 (Homo sapiens); read-out: inhibition; molecule: `Cc1ccc(-c2cnc3ccccn23)cc1`
[A] 77

[Q] Lab note: need inhibition for `Cc1ccc(-c2cnc3cc(-c4ccccc4)ccn23)cc1` on Receptor-type tyrosine-protein kinase FLT3 (Homo sapiens), anyone have it?
[A] 94.1

[Q] Value wanted: inhibition (Receptor-type tyrosine-protein kinase FLT3 (Homo sapiens)) of entry `c1ccc(-c2ccn3ccnc3c2)cc1`
[A] 0

[Q] Lab request: please report inhibition under test system Receptor-type tyrosine-protein kinase FLT3 (Homo sapiens) for `COc1ccc(-c2ccn3c(-c4ccc(CC#N)cc4)cnc3c2)cc1`
[A] 91

[Q] // map `Cc1ccc(-c2cnc3cc(-c4cccs4)ccn23)cc1` to recorded inhibition (system: Receptor-type tyrosine-protein kinase FLT3 (Homo sapiens))
[A] 89.7

[Q] Observed inhibition on Receptor-type tyrosine-protein kinase FLT3 (Homo sapiens) for `N#CCc1ccc(-c2cnc3cc(-c4ccco4)ccn23)cc1` , please.
[A] 97.8

[Q] Can you look up inhibition on Receptor-type tyrosine-protein kinase FLT3 (Homo sapiens) for `COc1ccc(-c2ccn3c(-c4ccc(C)cc4)cnc3c2)cc1` ?
[A] 91.4

[Q] # get_value(readout= inhibition, system= Receptor-type tyrosine-protein kinase FLT3 (Homo sapiens)) for `N#CCc1ccc(-c2cnc3ccccn23)cc1`
[A] 20

[Q] Checklist item: inhibition tested on Receptor-type tyrosine-protein kinase FLT3 (Homo sapiens), entry `Fc1ccc(-c2cnc3cc(-c4ccco4)ccn23)cc1` , value?
[A] 99.3

[Q] Requested read-out inhibition, target or system Receptor-type tyrosine-protein kinase FLT3 (Homo sapiens), entry `N#CCc1ccc(-c2cnc3cc(-c4cccs4)ccn23)cc1`
[A] 98

[Q] Recorded inhibition for `c1coc(-c2ccn3ccnc3c2)c1` with Receptor-type tyrosine-protein kinase FLT3 (Homo sapiens), please?
[A] 67.1

[Q] Query the reported inhibition for Receptor-type tyrosine-protein kinase FLT3 (Homo sapiens); item: `COc1ccc(-c2ccn3ccnc3c2)cc1`
[A] 33.9

[Q] Receptor-type tyrosine-protein kinase FLT3 (Homo sapiens) / inhibition / `N#Cc1cc(-c2cnc3ccccn23)ccc1F` : value?
[A] 61.3

[Q] GET /values?readout=inhibition&system=Receptor-type tyrosine-protein kinase FLT3 (Homo sapiens)&item= `Cc1ccc(-c2cnc3cc(-c4ccco4)ccn23)cc1`
[A] 95.5

[Q] API: value(readout=inhibition, system=Receptor-type tyrosine-protein kinase FLT3 (Homo sapiens)) for record `N#Cc1cc(-c2cnc3cc(-c4ccco4)ccn23)ccc1F`
[A] 98.7

[Q] Form field: inhibition recorded for `Clc1ccn2ccnc2c1` with Receptor-type tyrosine-protein kinase FLT3 (Homo sapiens) (enter value)
[A] 23.8

[Q] Look up inhibition with Receptor-type tyrosine-protein kinase FLT3 (Homo sapiens) for this molecule: `Fc1ccc(-c2cnc3ccccn23)cc1`
[A] 94.8

[Q] Query the reported inhibition for Receptor-type tyrosine-protein kinase FLT3 (Homo sapiens); item: `COc1ccc(-c2ccn3c(-c4ccc(F)cc4)cnc3c2)cc1`
[A] 98.6

[Q] Recorded inhibition for `c1csc(-c2ccn3ccnc3c2)c1` with Receptor-type tyrosine-protein kinase FLT3 (Homo sapiens), please?
[A] 79.8

[Q] Form field: inhibition recorded for `COc1ccc(-c2ccn3c(-c4ccc(F)c(C#N)c4)cnc3c2)cc1` with Receptor-type tyrosine-protein kinase FLT3 (Homo sapiens) (enter value)
[A] 81.4

[Q] Give Receptor-type tyrosine-protein kinase FLT3 (Homo sapiens) inhibition for `c1ccn2ccnc2c1`
[A] 14.6

[Q] Value wanted: inhibition (Receptor-type tyrosine-protein kinase FLT3 (Homo sapiens)) of entry `Fc1ccc(-c2cnc3cc(-c4ccccc4)ccn23)cc1`
[A] 98.8

[Q] Request - read-out inhibition | tested on Receptor-type tyrosine-protein kinase FLT3 (Homo sapiens) | molecule `N#Cc1cc(-c2cnc3cc(-c4ccccc4)ccn23)ccc1F`
[A] 94.1

[Q] Lab note: need inhibition for `N#Cc1cc(-c2cnc3cc(-c4cccs4)ccn23)ccc1F` on Receptor-type tyrosine-protein kinase FLT3 (Homo sapiens), anyone have it?
[A] 29.7
